Species on record: Rattus norvegicus
Assay: Open TG-GATES - Regimen: Single
Format: toxicity, organism-based, Sprague-Dawley
Set-up: regimen Single, gender Male, age 6 weeks
Conditions: in vivo, po, 300 mg/kg, 24 h, tissue Plasma, route gavage, dose level Middle
metric.name: GLC
Answer format: number, then unit.

Reference set, count: 3
compound="NC(N)=Nc1nc(CSCCC(N)=NS(N)(=O)=O)cs1 [FAMOTIDINE]" metric_name=GLC observed_measurement="194.2 mg/dL"
compound="COC1=CC(=O)C[C@@H](C)[C@]12Oc1c(Cl)c(OC)cc(OC)c1C2=O [GRISEOFULVIN]" metric_name=GLC observed_measurement="208 mg/dL"
compound="COc1ccc2[nH]c([S+]([O-])Cc3ncc(C)c(OC)c3C)nc2c1 (centres undefined) [OMEPRAZOLE]" metric_name=GLC observed_measurement="205.2 mg/dL"

# ---- query compound ----
Sure, the documented GLC for CCOC(=O)CCC(=O)O[C@H]1[C@H](O[C@@H]2[C@@H](C)[C@H](O[C@H]3C[C@@](C)(OC)[C@@H](O)[C@H](C)O3)[C@@H](C)C(=O)O[C@H](CC)[C@@](C)(O)[C@H](O)[C@@H](C)C(=O)[C@H](C)C[C@@]2(C)O)O[C@H](C)C[C@@H]1N(C)C [ERYTHROMYCIN ETHYLSUCCINATE] is 195.4 mg/dL

====

Measured Bas of individual entries
Species on record: Rattus norvegicus
Assay: Open TG-GATES - Regimen: Single
Type: toxicity, organism-based, Sprague-Dawley
Set-up: regimen Single, gender Male, age 6 weeks
Settings: in vivo, po, 100 mg/kg, 9 h, tissue Blood, route gavage, dose level High
Give the quantity in %, number only.

Answered cases to consult:
compound_structure=CN(C)CCCN1c2ccccc2CCc2ccccc21 observed_measurement=0.2
compound_structure=CN(C)CCN(Cc1cccs1)c1ccccn1 observed_measurement=0
compound_structure=CN(C)CCCN1c2ccccc2CCc2ccc(Cl)cc21 observed_measurement=0

Please examine the following record next.
// field: Bas; key: CC1=C(/C=C/C(C)=C/C=C/C(C)=C/CO)C(C)(C)CCC1 ; value = 0

====

Species on record: Rattus norvegicus
Experiment: Open TG-GATES - Regimen: Single
Type: toxicity, organism-based, Sprague-Dawley
Set-up: regimen Single, gender Male, age 6 weeks
Details: in vivo, po, 100 mg/kg, 6 h, tissue Blood, route gavage, dose level Low
metric.name: MCHC

Record excerpt, results attached:
molecule="NC(N)=Nc1nc(CSCCC(N)=NS(N)(=O)=O)cs1 [FAMOTIDINE]" observed_measurement=35.7%
molecule="COc1ccc2[nH]c([S+]([O-])Cc3ncc(C)c(OC)c3C)nc2c1 (centres undefined) [OMEPRAZOLE]" observed_measurement=34.2%
molecule="CCOC(=O)CCC(=O)O[C@H]1[C@H](O[C@@H]2[C@@H](C)[C@H](O[C@H]3C[C@@](C)(OC)[C@@H](O)[C@H](C)O3)[C@@H](C)C(=O)O[C@H](CC)[C@@](C)(O)[C@H](O)[C@@H](C)C(=O)[C@H](C)C[C@@]2(C)O)O[C@H](C)C[C@@H]1N(C)C [ERYTHROMYCIN ETHYLSUCCINATE]" observed_measurement=33.1%

Attention now shifts to the item below.
The recorded MCHC for entry COC1=CC(=O)C[C@@H](C)[C@]12Oc1c(Cl)c(OC)cc(OC)c1C2=O [GRISEOFULVIN] equals 34.3%
